- Test system: SCaBER
- testDetails: Antitumor activity by MTT assay, SCaBER
- conditionDescription: Homo sapiens, read-out: Vitamins Alone, Vit C 50% Cytotoxic Dose
- From the text: The FIC index was used to evaluate the synergism of the vitamins. A FIC<1.0 indicates the combination is synergistic, while a FIC>1.0 indicates the combination is antagonistic. A FIC=1.0 indicates the combination is indifferent. […] During this time, two requests for humanitarian intervention were made.
readoutLabel: IC50

Problem: Could you share which IC50 value was measured for O=C1O[C@H]([C@@H](O)CO)C([O-])=C1O.[Na+] [Vitamin C, Sodium Ascorbate] ?
Solution: 327 µM

This collection of values is drawn from patent US20070043110A1.
